study.target: human D2R/β-arrestin (Homo sapiens (Human))
Sequence (P14416 whole entry): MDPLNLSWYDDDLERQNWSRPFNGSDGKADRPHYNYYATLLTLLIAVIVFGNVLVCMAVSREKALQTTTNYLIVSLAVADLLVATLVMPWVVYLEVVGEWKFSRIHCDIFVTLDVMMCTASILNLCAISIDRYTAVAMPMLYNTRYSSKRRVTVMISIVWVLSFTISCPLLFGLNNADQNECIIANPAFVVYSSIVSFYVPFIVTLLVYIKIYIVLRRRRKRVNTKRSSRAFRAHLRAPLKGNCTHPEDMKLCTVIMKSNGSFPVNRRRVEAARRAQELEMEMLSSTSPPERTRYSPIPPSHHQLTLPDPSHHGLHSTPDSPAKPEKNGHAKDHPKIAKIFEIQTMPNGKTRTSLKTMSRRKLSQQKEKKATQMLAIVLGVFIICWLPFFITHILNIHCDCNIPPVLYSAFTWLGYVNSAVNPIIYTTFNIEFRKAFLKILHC
measurement.protocol: β-arrestin agonist assay (PathHunter)
Type: cell-based
test.settings: CHO-K1 cells expressing human D2R/β-arrestin; agonist mode
parameter.measured: EC50

Exercise: GET /values?readout=EC50&system=human D2R/β-arrestin (Homo sapiens (Human))&item= CC(C)C1(Oc2ccc(Cl)cc2)CCN(CCOc2ccccc2C(F)(F)F)CC1
Key: > 30 µM

Exercise: Lab note: need EC50 for CC1(Oc2ccc(Cl)cc2)CCN(CCOc2ccc(S(C)(=O)=O)cc2)CC1 on human D2R/β-arrestin (Homo sapiens (Human)), anyone have it?
Key: > 30 µM

Exercise: What value of EC50 on human D2R/β-arrestin (Homo sapiens (Human)) does CC1(Oc2cccc([N+](=O)[O-])c2)CCN(CCOc2ccccc2)C1 (stereo not drawn) have?
Key: > 30 µM

Exercise: Write down the reported EC50 of CC1(Oc2ccc(Cl)cc2)CCN(CCOc2ccc(C#N)cc2)CC1 , test system: human D2R/β-arrestin (Homo sapiens (Human)).
Key: > 30 µM

Exercise: Reported EC50 for human D2R/β-arrestin (Homo sapiens (Human)), given CC1(Oc2cccc(C(F)(F)F)c2)CCCN(CCOc2ccccc2)C1 (stereo not drawn) ?
Key: > 30 µM

Exercise: Item: CC1(Oc2ccccc2)CCN(CCOc2ccccc2)C1 (stereo not drawn) Test system: human D2R/β-arrestin (Homo sapiens (Human)) Read-out: EC50 Value: ?
Key: > 30 µM

Exercise: Identify the measured EC50 of Fc1ccccc1OCCN1CCC2(CC1)CCN2c1ccc(Cl)cc1 for human D2R/β-arrestin (Homo sapiens (Human)).
Key: > 30 µM

Exercise: Notebook: pull reported EC50 for human D2R/β-arrestin (Homo sapiens (Human)), entry CC1(Oc2ccc(Cl)cc2)CCN(CCOc2ccccc2Cl)CC1
Key: < 0.1 µM

Exercise: Hello, I am looking for reported EC50 with human D2R/β-arrestin (Homo sapiens (Human)) for CC1(Oc2ccc(Cl)cc2)CCN(CCOc2ccc(C(F)(F)F)cc2)CC1 . Could you help?
Key: 10 to 30 µM

Exercise: Record CC1(Oc2ccc(Cl)cc2)CCN(CCOc2cncs2)CC1 : what is its EC50 with human D2R/β-arrestin (Homo sapiens (Human))?
Key: 0.1 to 1 µM

Exercise: What reported EC50 corresponds to CC1(Oc2cccc(C(F)(F)F)c2)CCCN(CCOc2ccccc2F)C1 (stereo not drawn) on human D2R/β-arrestin (Homo sapiens (Human))?
Key: > 30 µM

Exercise: Recorded EC50 for CC1(Oc2ccc(Cl)cc2)CCN(CCCc2ccccc2)C1 (stereo not drawn) with human D2R/β-arrestin (Homo sapiens (Human)), please?
Key: > 30 µM

Exercise: # get_value(readout= EC50, system= human D2R/β-arrestin (Homo sapiens (Human))) for CC1(Oc2ccc(Cl)cc2)CCN(CCOc2ccncc2C(F)(F)F)CC1
Key: > 30 µM

Exercise: Kindly state the measured EC50 obtained for CC1(Oc2ccc(Cl)cc2)CCN(CCOc2ccc(Cl)cc2)CC1 with human D2R/β-arrestin (Homo sapiens (Human)).
Key: 0.1 to 1 µM

Exercise: So what EC50 did CC1(Oc2ccc(Cl)cc2)CCN(CCCCOc2ccccc2)C1 (stereo not drawn) get with human D2R/β-arrestin (Homo sapiens (Human))?
Key: > 30 µM

Exercise: What reported EC50 corresponds to CC1(Oc2ccccc2)CCN(CCOc2ccccc2S(C)(=O)=O)CC1 on human D2R/β-arrestin (Homo sapiens (Human))?
Key: > 30 µM

Exercise: Form entry - test system: human D2R/β-arrestin (Homo sapiens (Human)); read-out: EC50; molecule: CC1(Oc2ccccc2)CCN(CCCc2ccccc2C(F)(F)F)CC1
Key: > 30 µM

Exercise: human D2R/β-arrestin (Homo sapiens (Human)) / EC50 / FC1(Cc2ccccc2)CCN(CCOc2ccccc2C(F)(F)F)CC1 : value?
Key: > 30 µM

Exercise: What reported EC50 corresponds to CC1(Oc2cccnc2)CCN(CCOc2ccccc2)C1 (stereo not drawn) on human D2R/β-arrestin (Homo sapiens (Human))?
Key: 1 to 10 µM

Exercise: So what EC50 did CN(C)C(=O)C1(C)CCN(C[C@H]2COc3ccccc3O2)CC1 get with human D2R/β-arrestin (Homo sapiens (Human))?
Key: 0.1 to 1 µM

Exercise: Quick check: EC50 on human D2R/β-arrestin (Homo sapiens (Human)), item CC1(Oc2ccc(C(F)(F)F)cc2)CCN(CCOc2ccccc2)C1 (stereo not drawn) ?
Key: > 30 µM

Exercise: Look up EC50 with human D2R/β-arrestin (Homo sapiens (Human)) for this molecule: CC1(Oc2ccc(Cl)cc2)CCCN(CCOc2ccccc2F)C1 (stereo not drawn) [Example 98]
Key: > 30 µM

Exercise: // fetch human D2R/β-arrestin (Homo sapiens (Human)) EC50 for COc1cc(F)c(F)cc1OCCN1CCC(C)(Oc2ccc(Cl)cc2)CC1
Key: > 30 µM

Exercise: Which EC50 is reported with human D2R/β-arrestin (Homo sapiens (Human)) for this entry: CC1(Oc2ccc(Cl)cc2)CCN(CCOc2ccncc2)CC1 ?
Key: 1 to 10 µM

Exercise: Find EC50 (human D2R/β-arrestin (Homo sapiens (Human))) for the entry CCc1ccccc1OCCN1CCC(C)(Oc2ccccc2)CC1
Key: > 30 µM

Exercise: Can you look up EC50 on human D2R/β-arrestin (Homo sapiens (Human)) for CC1(Oc2ccc(Cl)cc2)CCN(CCOc2cn[nH]c2)CC1 ?
Key: 1 to 10 µM

Exercise: // lookup EC50 | system=human D2R/β-arrestin (Homo sapiens (Human)) | key= CC1(C(=O)Nc2ccccc2)CCN(CC2COc3ccccc3O2)CC1 (single isomer, unassigned) [Compound 204b]
Key: > 30 µM
